molecular target: Microtubule-associated protein tau (Homo sapiens, UniProt P10636); assay: Inhibition of tau (unknown origin) aggregation expressed in Escherichia coli (DE3) at 100 uM incubated for overnight by Th-S fluorescence staining based UV-Vis spectrophotometer (reference value: 0.0 +/- 2.4%)
Sequence (P10636 whole entry): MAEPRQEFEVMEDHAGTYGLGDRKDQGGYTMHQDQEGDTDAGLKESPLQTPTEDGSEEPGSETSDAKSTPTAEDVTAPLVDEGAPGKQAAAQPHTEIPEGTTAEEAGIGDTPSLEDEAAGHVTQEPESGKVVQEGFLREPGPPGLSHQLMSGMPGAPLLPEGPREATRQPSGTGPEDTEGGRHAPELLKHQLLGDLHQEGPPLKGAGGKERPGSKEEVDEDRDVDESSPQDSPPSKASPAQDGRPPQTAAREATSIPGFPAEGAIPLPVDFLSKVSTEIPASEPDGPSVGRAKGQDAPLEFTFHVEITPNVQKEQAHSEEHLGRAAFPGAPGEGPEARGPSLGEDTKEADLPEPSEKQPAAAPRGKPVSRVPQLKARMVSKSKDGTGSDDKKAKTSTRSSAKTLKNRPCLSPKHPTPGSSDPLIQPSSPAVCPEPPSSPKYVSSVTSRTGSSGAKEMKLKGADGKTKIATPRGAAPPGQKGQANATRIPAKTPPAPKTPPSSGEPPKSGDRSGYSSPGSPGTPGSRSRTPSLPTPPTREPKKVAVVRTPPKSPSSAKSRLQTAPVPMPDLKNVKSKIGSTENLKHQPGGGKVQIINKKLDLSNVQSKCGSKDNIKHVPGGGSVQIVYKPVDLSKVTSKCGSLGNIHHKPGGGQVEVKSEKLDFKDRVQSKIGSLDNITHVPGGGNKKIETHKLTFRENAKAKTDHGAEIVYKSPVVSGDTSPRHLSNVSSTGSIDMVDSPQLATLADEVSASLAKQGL
inhibition vs 70%: at or above is fulfilled, below is not fulfilled.

Please check the record COc1cc(C2Oc3cc([C@H]4Oc5cc(O)cc(O)c5C(=O)[C@@H]4O)ccc3OC2CO)ccc1O (stereo not given in full) and state if its inhibition is at or above 70%.
not fulfilled

Please check the record COc1cc(/C=C/C(=O)Oc2cc(O)c3c(c2)O[C@H](c2ccc4c(c2)O[C@@H](c2ccc(O)c(OC)c2)[C@H](CO)O4)[C@@H](O)C3=O)ccc1O and state if its inhibition is at or above 70%.
fulfilled

Please check the record COc1cc(/C=C/C(=O)Oc2cc(O)c3c(c2)O[C@H](c2ccc4c(c2)O[C@H](c2ccc(O)c(OC)c2)[C@@H](CO)O4)[C@@H](O)C3=O)ccc1O and state if its inhibition is at or above 70%.
not fulfilled

Please check the record COc1cc(/C=C/C(=O)Oc2cc(O)c3c(c2)O[C@H](c2ccc4c(c2)OC(c2ccc(O)c(OC)c2)C(CO)O4)[C@@H](O)C3=O)ccc1O (stereo not given in full) and state if its inhibition is at or above 70%.
not fulfilled

Please check the record COc1cc(C2Oc3cc([C@H]4Oc5cc(OC(=O)/C=C/c6ccccc6)cc(O)c5C(=O)[C@@H]4O)ccc3OC2CO)ccc1O (stereo not given in full) and state if its inhibition is at or above 70%.
fulfilled
